Where these numbers come from: ChEMBL document CHEMBL3352014

molecular target: Transient receptor potential cation channel subfamily M member 8 (Rattus norvegicus); test: Antagonist activity against rat TRPM8 expressed in HEK293 cells assessed as inhibition of icilin-induced increase in intracellular Ca2+ concentration by Fluo-4-AM dye based spectrofluorimetry
Sequence (Q8R455 whole entry): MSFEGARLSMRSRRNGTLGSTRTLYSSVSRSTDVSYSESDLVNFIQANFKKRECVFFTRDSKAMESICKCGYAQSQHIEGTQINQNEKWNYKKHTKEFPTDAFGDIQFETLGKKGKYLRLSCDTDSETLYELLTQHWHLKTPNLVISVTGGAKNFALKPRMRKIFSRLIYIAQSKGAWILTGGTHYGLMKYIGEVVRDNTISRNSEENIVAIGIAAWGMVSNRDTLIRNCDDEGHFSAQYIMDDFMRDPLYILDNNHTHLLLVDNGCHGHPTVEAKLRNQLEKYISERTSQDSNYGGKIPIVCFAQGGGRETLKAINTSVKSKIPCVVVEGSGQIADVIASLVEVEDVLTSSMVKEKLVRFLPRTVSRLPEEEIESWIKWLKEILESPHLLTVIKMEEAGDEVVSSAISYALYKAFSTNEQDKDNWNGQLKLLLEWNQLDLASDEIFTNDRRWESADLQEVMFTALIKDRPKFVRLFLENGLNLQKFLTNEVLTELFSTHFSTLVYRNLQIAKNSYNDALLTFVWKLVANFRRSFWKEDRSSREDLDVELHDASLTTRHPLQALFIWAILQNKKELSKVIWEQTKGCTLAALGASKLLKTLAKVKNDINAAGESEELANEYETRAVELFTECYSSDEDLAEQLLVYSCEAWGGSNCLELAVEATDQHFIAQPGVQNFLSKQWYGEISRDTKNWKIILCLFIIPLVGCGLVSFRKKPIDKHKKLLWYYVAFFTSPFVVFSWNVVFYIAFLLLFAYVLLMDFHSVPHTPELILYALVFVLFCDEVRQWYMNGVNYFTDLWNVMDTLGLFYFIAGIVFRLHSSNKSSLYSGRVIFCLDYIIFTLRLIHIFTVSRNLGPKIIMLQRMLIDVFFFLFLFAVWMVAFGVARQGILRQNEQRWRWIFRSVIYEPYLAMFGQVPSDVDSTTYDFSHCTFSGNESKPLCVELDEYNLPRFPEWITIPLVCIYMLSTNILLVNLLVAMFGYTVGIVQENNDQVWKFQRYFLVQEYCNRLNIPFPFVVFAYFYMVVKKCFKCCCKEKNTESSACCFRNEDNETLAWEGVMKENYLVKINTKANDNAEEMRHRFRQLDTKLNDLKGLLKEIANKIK
Please respond with reported IC50 for every item in the list.

[in] So what does the record say about IC50 for `CC(C)=CCC/C(C)=C\CO` ?
[out] > 100 µM

[in] Suppose we examine the molecule `CC(C)=CCC/C(C)=C/COC(=O)CCc1ccccc1` ; what IC50 value has been reported?
[out] > 100 µM

[in] Please give the measured IC50 for this molecule: `CC(C)=CCC/C(C)=C/CNC(=O)NC1CCCCC1`
[out] > 100 µM

[in] What measured IC50 goes with `CC(C)=CCC/C(C)=C\COC(=O)Cc1ccc(Cl)cc1` ?
[out] 0.75 µM

[in] Item `CC(C)=CCC/C(C)=C/CNC(=O)Oc1ccc(C(C)(C)C)cc1` has what recorded IC50?
[out] 86.5 µM

[in] # query: IC50 of entry CC(C)=CCCC(C)CCOC(=O)CCc1ccccc1 (stereo unspecified)
[out] > 100 µM

[in] Requested read-out: IC50. Entry: `CC(C)=CCC/C(C)=C\COC(=O)Cc1cccc(I)c1`
[out] > 100 µM

[in] Bench note: what IC50 did CC(C)=CCCC(C)CCOC(=O)c1ccc(C)cc1 (stereo unspecified) show?
[out] > 100 µM

[in] Param item = `CC(C)=CCC/C(C)=C\CNC(=O)CCc1ccccc1` ; retrieve measured IC50.
[out] 2.2 µM

[in] Please look up its IC50: `CC(C)=CCC/C(C)=C/CNC(=O)Nc1cccc(Cl)c1`
[out] > 100 µM

[in] What value of measured IC50 is listed for `CC(C)=CCC/C(C)=C/COC(=O)c1ccc(C#N)cc1` ?
[out] > 100 µM

====

molecular target: Transient receptor potential cation channel subfamily A member 1 (Rattus norvegicus); assay: Agonist activity at rat TRPA1 expressed in HEK293 cells assessed as increase in intracellular Ca2+ concentration by Fluo-4-AM dye based spectrofluorimetry
// returns not met unless EC50 is strictly below 0.1 µM, in which case met

[in] Given `CC(C)=CCC/C(C)=C/CNC(=O)CCc1ccccc1` , is recorded EC50 strictly lower than 0.1 µM?
[out] not met

[in] Bench note: check whether `CC(C)=CCC/C(C)=C/CNC(=O)Cc1ccc(Cl)cc1` shows EC50 below 0.1 µM
[out] not met

[in] Please indicate whether the reported EC50 of CC(C)=CCCC(C)CCO (racemic) [CITRONELLOL] is strictly below 0.1 µM.
[out] not met

[in] Just wondering, is EC50 of `COc1ccc(CC(=O)OC/C=C(/C)CCC=C(C)C)cc1` below 0.1 µM?
[out] not met

[in] Determine whether this molecule shows EC50 lower than 0.1 µM (ties excluded): `CC(C)=CCC/C(C)=C\COC(=O)c1ccc(C)cc1`
[out] met

[in] Below 0.1 µM on EC50? Entry `CC(C)=CCC/C(C)=C\COC(=O)CCc1ccccc1`
[out] not met

====

target: Transient receptor potential cation channel subfamily A member 1 (Rattus norvegicus, UniProt Q6RI86); assay: Antagonist activity against rat TRPA1 expressed in HEK293 cells assessed as inhibition of AITC-induced increase in intracellular Ca2+ concentration by Fluo-4-AM dye based spectrofluorimetry
Sequence (Q6RI86 whole entry): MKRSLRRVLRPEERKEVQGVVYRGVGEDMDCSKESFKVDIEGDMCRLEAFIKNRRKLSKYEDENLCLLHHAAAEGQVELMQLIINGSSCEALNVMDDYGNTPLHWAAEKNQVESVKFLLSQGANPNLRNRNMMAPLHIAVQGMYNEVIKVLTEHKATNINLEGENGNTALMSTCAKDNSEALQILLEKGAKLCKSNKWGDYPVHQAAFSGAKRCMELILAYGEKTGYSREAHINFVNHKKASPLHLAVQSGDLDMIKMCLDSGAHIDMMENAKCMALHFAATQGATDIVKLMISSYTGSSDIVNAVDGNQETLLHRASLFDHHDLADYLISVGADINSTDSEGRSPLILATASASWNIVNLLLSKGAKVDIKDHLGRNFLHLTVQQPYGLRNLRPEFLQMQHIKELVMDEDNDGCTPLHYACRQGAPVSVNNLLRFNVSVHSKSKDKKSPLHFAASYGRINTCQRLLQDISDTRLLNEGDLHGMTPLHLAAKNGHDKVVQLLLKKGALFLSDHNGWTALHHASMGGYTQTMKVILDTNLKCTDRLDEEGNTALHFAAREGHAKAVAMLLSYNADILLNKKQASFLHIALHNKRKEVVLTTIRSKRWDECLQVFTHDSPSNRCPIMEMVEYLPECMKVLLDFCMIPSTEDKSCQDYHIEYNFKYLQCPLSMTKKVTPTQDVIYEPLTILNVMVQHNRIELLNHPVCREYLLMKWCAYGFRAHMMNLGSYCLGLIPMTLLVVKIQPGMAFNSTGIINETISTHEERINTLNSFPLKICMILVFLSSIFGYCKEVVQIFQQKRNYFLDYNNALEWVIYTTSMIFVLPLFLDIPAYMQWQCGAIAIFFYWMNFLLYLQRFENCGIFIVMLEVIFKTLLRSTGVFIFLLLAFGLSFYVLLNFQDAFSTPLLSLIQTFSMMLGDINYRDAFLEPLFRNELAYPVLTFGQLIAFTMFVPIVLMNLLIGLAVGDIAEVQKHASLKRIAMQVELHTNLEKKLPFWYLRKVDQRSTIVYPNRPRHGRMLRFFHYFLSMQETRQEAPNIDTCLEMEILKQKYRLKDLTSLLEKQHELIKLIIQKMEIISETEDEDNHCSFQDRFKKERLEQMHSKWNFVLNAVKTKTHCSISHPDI
Test readout: pIC50
Note on units: pIC50 is unitless, being -log10 of a concentration expressed in mol/L.

[in] Bench note: what pIC50 did `COc1ccc(CC(=O)OC/C=C(\C)CCC=C(C)C)cc1` show?
[out] 6.42

[in] Reported pIC50 for `CC(C)=CCC/C(C)=C\COC(=O)c1ccc(C)cc1` : what is it?
[out] 6.96

[in] Need pIC50 of `COc1ccc(CC(=O)OC/C=C(/C)CCC=C(C)C)cc1` , thanks.
[out] 6.59

[in] Entry `CC(C)=CCC/C(C)=C\COC(=O)Nc1ccc(C(C)(C)C)cc1` has what pIC50?
[out] 6.54

[in] Endpoint output: pIC50 of `CC(C)=CCC/C(C)=C\CNC(=O)Nc1cccc(Cl)c1` . Value?
[out] 6.39

[in] Record request: pIC50 value, item `CC(C)=CCC/C(C)=C\CNC(=O)Cc1ccc(Cl)cc1`
[out] 6.03
